- Tested on: HT29 colon
- protocol text: NCI tumour cell line growth inhibition, 48 h
Where a SMILES comes first, the peptide text is derived from it. [ ]: non-standard residue; d: D form. The star is where a group is joined. NMeF = CN[CH](Cc1ccccc1)C(=O)O; NMeV = CN[CH](C(=O)O)C(C)C; Boc = CC(C)(C)OC(=O)*

[
  {
    "compound": "CC12C(=O)CC(CC1=O)C2(C)C",
    "TGI": "> 100 µM"
  },
  {
    "compound": "N#C/C(=C1C=C(Br)/C(=N\\O)C=C\\1Cl)c1cccc2ccccc12",
    "TGI": "6.79 µM"
  },
  {
    "compound": "C[C@@H]1CC(=O)C2CCCC1C2=O (stereo partly specified)",
    "TGI": "> 100 µM"
  },
  {
    "compound": "Nc1cc2[nH]c(=O)c(=O)[nH]c2cc1N",
    "TGI": "> 100 µM"
  },
  {
    "compound": "COc1cc(-c2ccc3c(c2)NC(=O)/C3=C\\c2ccc[nH]2)ccc1O",
    "TGI": "> 50 µM"
  },
  {
    "compound": "O=C(c1ccc(N=Cc2ccccc2O)cc1)c1ccc(N=Cc2ccccc2O)cc1",
    "TGI": "> 100 µM"
  },
  {
    "compound": "CCOc1cn(C2CC(O)C(CO)O2)c(=O)[nH]c1=O (stereo unspecified)",
    "TGI": "> 100 µM"
  },
  {
    "compound": "Cn1cc(NC(=O)c2cc(NC(=O)CN=C(N)N)cn2C)cc1C(=O)NCCC(=N)N",
    "TGI": "> 100 µM"
  },
  {
    "compound": "CC1NC(=O)CC(c2ccccc2)N(N=O)C1c1ccccc1 (stereo unspecified)",
    "TGI": "> 100 µM"
  },
  {
    "compound": "CC(C)C(NC(=O)OC(C)(C)C)C(=O)N(C)C(Cc1ccccc1)C(=O)N(C)C(C(=O)O)C(C)C (stereo not drawn) (Boc-Val-[NMeF]-[NMeV]-OH; configuration not given here)",
    "TGI": "> 100 µM"
  },
  {
    "compound": "C=C1C(=O)O[C@@H]2/C=C(\\C)CC/C=C(/COC(C)=O)C[C@@H](OC(C)=O)[C@@H]12",
    "TGI": "> 40.9 µM"
  },
  {
    "compound": "COC(C(O)CO)C(O)C(O)C(=O)NNc1ccccc1 (stereo unspecified)",
    "TGI": "> 100 µM"
  },
  {
    "compound": "O=C1OC(C(O)CO)C(=O)C1=O (stereo unspecified)",
    "TGI": "> 10000 µM"
  },
  {
    "compound": "CC1(C)C(=O)N(CCCCCCN2C(=O)C(C)(C)c3ccccc32)c2ccccc21",
    "TGI": "43.5 µM"
  },
  {
    "compound": "CC1(C)NC2C(=O)c3c([nH]c4ccccc34)[C@]3(C)CCC1CC23 (stereo partly specified)",
    "TGI": "> 100 µM"
  },
  {
    "compound": "O=C(O)c1ccc([N+](=O)[O-])c2cc3cnccc3nc12",
    "TGI": "57.3 µM"
  },
  {
    "compound": "O=C1/C(=C/c2ccc([N+](=O)[O-])cc2)C(=O)N(c2ccccc2)C1c1ccccc1 (stereo unspecified)",
    "TGI": "> 10 µM"
  },
  {
    "compound": "O=Cc1ccc(OCc2cccc(COc3ccc(/C=N\\Nc4ccc([N+](=O)[O-])cc4[N+](=O)[O-])cc3)n2)cc1",
    "TGI": "> 100 µM"
  },
  {
    "compound": "Cc1ccc(SCC(CF)OC(C)n2cnc3c(=O)[nH]c(N)nc32)cc1 (stereo unspecified)",
    "TGI": "> 100 µM"
  },
  {
    "compound": "CC(=O)[O-].CCN(CC)c1ccc(C=NCCN=Cc2ccc(N(CC)CC)cc2[O-])c([O-])c1.[Mn+3]",
    "TGI": "40.1 µM"
  },
  {
    "compound": "CCOC(=O)c1nc2ccc(C(F)(F)F)cc2nc1NCc1cc(OC)c(OC)c(OC)c1",
    "TGI": "> 100 µM"
  }
]
